Experiment: unspecified inhibition readout at 50 µM (AID 740)
Conditions: unspecified screen
About 65 (0.07%) of roughly 96,000 compounds were called active. Cut-off read from the data, not from the text of the source: active = inhibition above about 25%; inactive = the rest. The sample as a whole holds a higher share of actives than the screen did.
Outcome field: choose from class 1 for active, class 0 for inactive

Some entries whose results are on file:
| molecule | classification |
| --- | --- |
| CCS(=O)(=O)Nc1cccc(-c2nc3cccnc3s2)c1C | class 1 |
| Cc1noc(C)c1CSc1nc2sc(C)c(C)c2c(=O)n1C1CCCC1 | class 1 |
| CCOC(=O)c1cnc(SCC(=O)N2CCc3ccccc32)nc1N | class 0 |
| Cc1cc(C(=O)OCC(=O)Nc2ccc(S(=O)(=O)N3CCOCC3)cc2)c(C)o1 | class 0 |
| Cc1c(NS(=O)(=O)c2ccc3c(c2)OCCO3)cccc1-c1nc2cccnc2s1 | class 0 |
| O=S(=O)(c1ccccc1)N1C2CCC1CC(O)(c1cccnc1)C2 (stereo unspecified) | class 0 |
| COc1cccc(NS(=O)(=O)c2ccc3[nH]cc(C(=O)NCCC(C)C)c(=O)c3c2)c1 | class 0 |
| CCC(=O)N1CCN(c2ccccc2NC(=O)COc2ccccc2Cl)CC1 | class 0 |

-- ask Per the records of this test, what outcome belongs to CCS(=O)(=O)Nc1cc(-c2nc3cccnc3s2)ccc1C ?
-- reply class 0

-- ask Per the records of this test, what outcome belongs to CCC1CCCCN1C(=O)Nc1ccc(F)cc1 (stereo unspecified) ?
-- reply class 0

-- ask Per the records of this test, what outcome belongs to COc1ccccc1Cn1c(=O)c2ccccc2n2c(SCc3csc(C)n3)nnc12 ?
-- reply class 0

* * *

Experiment: unspecified inhibition readout at 50 µM (AID 740)
Details: unspecified screen
Screen size: about 96,000 compounds; about 65 (0.07%) were called active. Rule as the data show it: active = inhibition above about 25%; inactive = the rest. The full list was thinned out, with actives kept by preference.
Outcome field: choose from active, inactive

Some entries whose results are on file:
| compound | classification |
| --- | --- |
| O=C(c1cc(-c2ccc(Cl)cc2)n(-c2cc(Cl)ccc2Cl)n1)N1CCOCC1 | inactive |
| Cc1nc2ccccc2c(=O)n1C1CCCCCC1 | inactive |
| C=CCOc1ccc(/C(CC)=N/O)c(OC)c1 | inactive |
| O=C(c1cc(-c2ccc(Cl)cc2)n(-c2ccc(Cl)cc2)n1)N1CCOCC1 | inactive |
| COc1ccc(C(=O)C(CN2CCOCC2)c2ccccc2)cc1 (configuration not stated) | active |

-- ask Per the records of this test, what outcome belongs to COc1ccc(C(=O)C(CN2CCCC2)c2ccccc2)cc1 (configuration not stated) ?
-- reply inactive

-- ask Per the records of this test, what outcome belongs to CC(=O)Cc1nsc(NC(=O)c2ccc(-c3ccccc3Cl)o2)n1 ?
-- reply inactive

-- ask Per the records of this test, what outcome belongs to O=C(c1cc(-c2ccc(Cl)cc2)n(-c2ccc(Cl)cc2Cl)n1)N1CCOCC1 ?
-- reply active

-- ask Per the records of this test, what outcome belongs to O=C(Nc1ccc(Cl)cc1)N1CCCC1 ?
-- reply inactive

* * *

Experiment: unspecified inhibition readout at 50 µM (AID 740)
Conditions: unspecified screen
Hit rate of the full screen: of about 96,000 compounds, about 65 (0.07%) were called active. Rule as the data show it: active = inhibition above about 25%; inactive = the rest. The sample holds actives, similar compounds and a random draw of the others, so the mix is not that of the screen.
Outcome field: choose from active, inactive

| structure-notation | classification |
| --- | --- |
| CC(C)(c1ccccc1)c1ccc(OCCn2cnc3ccccc3c2=O)cc1 | inactive |
| COc1ccc(-c2cc(C(F)(F)F)nc(SCCC(=O)Nc3cc(C)on3)n2)cc1 | inactive |
| COCCn1c(-c2cccs2)nc2c(c(=O)c3ccccc3n2C)c1=O | inactive |
| CC(C)(C)c1ccc(OCCN2CCCC2)cc1 | inactive |
| Cn1c2ccccc2c(=O)c2c(=O)n(C3CCCCC3)c(-c3cccs3)nc21 | active |
| Clc1ccc(Nc2ncnc3c2cnn3-c2ccccc2)cc1 | inactive |
| O=C(Nc1c(-c2ccccc2)nc2sccn12)c1ccccc1 | active |
| Clc1cccc(CSc2nnc([C@@H]3CCCN3)o2)c1 | inactive |

-- ask Per the records of this test, what outcome belongs to Cn1nc(C(=O)Nc2c(-c3ccccc3)nc3sccn23)c2ccccc2c1=O ?
-- reply inactive

-- ask Per the records of this test, what outcome belongs to Cc1nc(SCC(=O)c2ccccc2)n[nH]1 ?
-- reply inactive

-- ask Per the records of this test, what outcome belongs to CC(=O)Nc1ccc(Nc2ncnc3c2cnn3-c2ccccc2)cc1 ?
-- reply active

* * *

Assay: unspecified inhibition readout at 50 µM (AID 740)
Conditions: unspecified screen; hits give high values
About 65 (0.07%) of roughly 96,000 compounds were called active. The sample holds actives, similar compounds and a random draw of the others, so the mix is not that of the screen.
property-measured: inhibition

Example cases with answers are listed next.
| compound | reported-result |
| --- | --- |
| O=C(NC1CCCC1)C1(c2ccccc2)CCN(S(=O)(=O)c2ccccc2)CC1 | 1.06% (inactive) |
| Cc1ccc(CSc2nnc(-c3cccnc3)o2)cc1 | inactive |
| CCc1c(C)nc2[nH]nc(NC(=O)C(F)(F)F)n2c1=O | 1.45% (inactive) |
| COCc1cc(=O)n2c(-c3ccccc3OC)n[nH]c2n1 | inactive |
| CCc1c(C)[nH]c2nc3ccccc3n2c1=O | 1.48% (inactive) |

Shift focus to the following entry.
-- ask Provide measured inhibition value, entry: COc1cc(C2C(C#N)=C(C)NC3=C2C(=O)c2ccccc23)cc(OC)c1OC (stereo unspecified)
-- reply 3.83% (inactive)

* * *

Assay: unspecified inhibition readout at 50 µM (AID 740)
Conditions: unspecified screen
Among all 96,000 compounds or so, about 65 (0.07%) were called active. No stated cut-off is given here; in the data, active means inhibition above about 25%; inactive means the rest. Only a selection was taken, and actives are over-represented in it overall.
Outcome field: choose from active, inactive

-- ask Per the records of this test, what outcome belongs to CCOC(=O)/C=C1\SCC(=O)N1CC(=O)NC12CC3CC(CC(C3)C1)C2 ?
-- reply active

-- ask Per the records of this test, what outcome belongs to Cn1ccnc1SC(=O)N1c2ccccc2Sc2ccccc21 ?
-- reply inactive

* * *

Test: unspecified inhibition readout at 50 µM (AID 740)
Conditions: unspecified screen
The campaign covered roughly 96,000 compounds. About 65 (0.07%) were called active. Cut-off read from the data, not from the text of the source: active = inhibition above about 25%; inactive = the rest. The entries come from a sample that favours actives as a whole.
Outcome field: choose from true for active, false for inactive

| molecule | classification |
| --- | --- |
| COc1cccc(C2=NOC(C(=O)Nc3cc(C)nn3-c3ccccc3)C2)c1OC (configuration not stated) | false |
| COc1ccc(-c2nc3nc(C)c(Cc4ccccc4)c(=O)n3[nH]2)cc1 | false |
| O=C(CSc1ncccc1C(=O)O)NCCC1=CCCCC1 | false |
| Cc1cc(C)c(C(=O)/C=C/c2ccc(C(C)C)cc2)c(=O)[nH]1 | false |
| COc1cc(OC)c(C2=NOC(C(=O)Nc3cc(C)nn3-c3ccccc3)C2)cc1Cl (configuration not stated) | false |
| Cc1ccc(-c2csc3ncn(/N=C/N(C)C)c(=O)c23)o1 | false |
| COc1ccc(NC(=O)CCN2CCCCCC2)c(OC)c1 | false |
| COc1ccc(OC)c(-n2c(SCC(=O)Nc3cc(C)on3)nnc2-c2c[nH]c3ccccc23)c1 | true |

-- ask Per the records of this test, what outcome belongs to COc1ccc(OC)c(-n2c(SCC(N)=O)nnc2-c2c[nH]c3ccccc23)c1 ?
-- reply false

-- ask Per the records of this test, what outcome belongs to COC(=O)c1sc(S(=O)(=O)N2CCN(c3ccccc3)CC2)c(C(=O)OC)c1C ?
-- reply false

-- ask Per the records of this test, what outcome belongs to COc1ccc([C@H]2[C@H](C(=O)C(C)(C)C)N3N=Cc4ccccc4C3[C@]23N=C(c2ccccc2)OC3=O)cc1 (some centres not stated) ?
-- reply false

-- ask Per the records of this test, what outcome belongs to Cc1nc2scc(-c3ccccc3)c2c(=O)n1/N=C/c1ccco1 ?
-- reply false

-- ask Per the records of this test, what outcome belongs to Cc1nc2nc(-c3ccccc3)[nH]n2c(=O)c1Cc1ccccc1 ?
-- reply true

-- ask Per the records of this test, what outcome belongs to Cc1nc2nc(-c3ccc(Cl)cc3)[nH]n2c(=O)c1Cc1ccccc1 ?
-- reply false

* * *

Experiment: unspecified inhibition readout at 50 µM (AID 740)
Conditions: unspecified screen; hits give high values
The whole screen tested about 96,000 compounds, of which about 65 (0.07%) were called active. Shown is part of a subset that was picked to be rich in actives.
property-measured: inhibition

Example cases with answers are listed next.
| molecule | reported-result |
| --- | --- |
| Cc1ccc(/C=C2/SC(=S)N(CC(=O)Nc3ncc(Cc4ccc(C)cc4)s3)C2=O)cc1 | 0.58% (inactive) |
| Cc1sc(-c2ccccn2)nc1OC(=O)c1ccc(Cl)cc1 | inactive |
| CC1CC(C)CN(C(=O)COc2ccc(-c3nnco3)cc2)C1 (stereo not given) | inactive |
| COC(=O)c1ccc2ccn(CC(=O)NC(C)C)c2c1 | inactive |

Shift focus to the following entry.
-- ask Provide measured inhibition value, entry: CCNc1nnc(-c2ccccc2OC)s1
-- reply inactive

Value source: PubChem BioAssay AID740
